assay system: T1, Human CD98 ECD with C-terminal His-tag (human, UniProt P08195 105-529)
T1 construct: also called huCD98 ECD; recombinant human CD98 extracellular domain
T1 sequence: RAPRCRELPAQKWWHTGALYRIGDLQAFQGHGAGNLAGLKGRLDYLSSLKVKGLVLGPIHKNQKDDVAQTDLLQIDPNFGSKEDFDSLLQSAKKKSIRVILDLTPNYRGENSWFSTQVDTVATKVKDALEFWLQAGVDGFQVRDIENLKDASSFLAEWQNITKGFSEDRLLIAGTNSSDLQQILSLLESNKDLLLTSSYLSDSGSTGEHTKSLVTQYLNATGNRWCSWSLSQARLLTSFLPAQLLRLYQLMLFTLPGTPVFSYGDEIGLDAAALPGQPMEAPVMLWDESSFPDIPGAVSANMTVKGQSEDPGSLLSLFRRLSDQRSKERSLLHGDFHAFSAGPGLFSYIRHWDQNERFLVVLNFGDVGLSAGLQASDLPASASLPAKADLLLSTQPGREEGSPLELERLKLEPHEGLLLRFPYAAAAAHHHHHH
test description: SPR Biacore, anti-Fc capture of mAb, CD98 ECD analyte
Binary call on koff: satisfied from 0.0002 s⁻¹ upward, not satisfied beneath that.

# binder, label value
rows = [
    ("Anti-CD98 rat hybridoma antibody Ab6 (antibody, V domains shown) VH: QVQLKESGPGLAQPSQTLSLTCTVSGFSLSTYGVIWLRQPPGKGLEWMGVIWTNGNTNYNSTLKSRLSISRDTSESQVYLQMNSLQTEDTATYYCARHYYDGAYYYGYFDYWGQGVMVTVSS VL: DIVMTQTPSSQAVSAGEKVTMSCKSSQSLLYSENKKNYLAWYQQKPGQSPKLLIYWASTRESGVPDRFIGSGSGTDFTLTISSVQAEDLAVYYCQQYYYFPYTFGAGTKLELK", "not satisfied"),
    ("Anti-CD98 rat hybridoma antibody Ab11 (antibody, V domains shown) VH: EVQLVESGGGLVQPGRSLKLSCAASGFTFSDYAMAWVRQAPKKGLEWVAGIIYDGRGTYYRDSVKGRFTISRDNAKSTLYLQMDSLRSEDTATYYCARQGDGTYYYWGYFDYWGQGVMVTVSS VL: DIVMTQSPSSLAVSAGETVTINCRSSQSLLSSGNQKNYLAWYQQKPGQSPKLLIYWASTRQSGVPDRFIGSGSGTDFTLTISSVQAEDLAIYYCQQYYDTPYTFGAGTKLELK", "satisfied"),
    ("Anti-CD98 murine hybridoma antibody Ab5 (antibody, V domains shown) VH: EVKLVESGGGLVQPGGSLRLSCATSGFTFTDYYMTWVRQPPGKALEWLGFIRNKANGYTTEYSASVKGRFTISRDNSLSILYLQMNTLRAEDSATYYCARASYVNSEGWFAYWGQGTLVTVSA VL: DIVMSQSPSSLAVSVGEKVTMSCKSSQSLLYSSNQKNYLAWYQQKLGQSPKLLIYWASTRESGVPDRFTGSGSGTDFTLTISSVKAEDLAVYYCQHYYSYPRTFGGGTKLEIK", "not satisfied"),
    ("Anti-CD98 murine hybridoma antibody Ab3 (antibody, V domains shown) VH: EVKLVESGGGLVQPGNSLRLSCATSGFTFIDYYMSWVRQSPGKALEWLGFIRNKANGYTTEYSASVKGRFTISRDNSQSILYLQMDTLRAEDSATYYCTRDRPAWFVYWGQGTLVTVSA VL: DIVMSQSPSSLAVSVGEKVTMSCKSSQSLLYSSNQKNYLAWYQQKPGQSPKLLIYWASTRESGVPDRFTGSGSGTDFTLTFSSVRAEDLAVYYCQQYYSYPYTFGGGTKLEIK", "satisfied"),
    ("Anti-CD98 rat hybridoma antibody Ab7 (antibody, V domains shown) VH: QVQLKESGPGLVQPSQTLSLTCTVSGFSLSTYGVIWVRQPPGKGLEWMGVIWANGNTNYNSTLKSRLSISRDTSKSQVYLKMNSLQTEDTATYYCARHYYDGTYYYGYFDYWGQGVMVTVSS VL: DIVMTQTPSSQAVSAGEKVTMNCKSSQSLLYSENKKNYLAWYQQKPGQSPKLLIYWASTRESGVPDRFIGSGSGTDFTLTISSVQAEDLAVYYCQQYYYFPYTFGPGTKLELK", "not satisfied"),
]
